B1: WEE1 (parent)
chain: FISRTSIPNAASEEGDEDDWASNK

- Variants of: B1
- test-protocol: protein stability index of a GFP-peptide fusion (GPS, HEK-293T) (PSI 1-6); higher = more stable;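 further: lentivirally expressed fusions sorted by FACS into six bins by GFP to DsRed ratio, PSI derived from sequencing read proportions per bin multiplied by bin number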
- particulars: c terminus: a fixed tail appended
Kind request: treat 4 as inclusive, so protein stability index at 4 or higher is Condition met, anything lower is Condition not met.

Recorded results for 6 variants are shown here.
1. A21R    Condition met
2. P8G    Condition not met
3. S12T    Condition not met
4. S6E    Condition met
5. F1T    Condition met
6. I7E    Condition met

Lab note: next variant to report on.
Textbook exercise: given the entry K24N , state whether its protein stability index is greater than or equal to 4.
Condition met
